Assay: in vivo
Details: mouse, 40 mg/kg
measurement-name: Cmax

[
  {
    "molecule": "C[C@]12CC[C@H]3[C@@H](CC=C4C[C@@H](O)CC[C@@]43C)[C@@H]1CC[C@@H]2O [5-AED, androst-5-ene-3β,17β-diol]",
    "recorded-value": "~100 ng/mL"
  }
]

Origin of values: paper PMC3005896
